# system-tested: Bcr-Abl (Homo sapiens)
# procedure-summary: Bcr-Abl tyrosine kinase enzyme activity
pIC50: −log10 of the molar value.
measure: pIC50

# get_value(readout= pIC50, system= Bcr-Abl (Homo sapiens)) for CS(=O)(=O)O.Cc1ccc(C(=O)Nc2ccc(CN3CCN(C)CC3)c(C(F)(F)F)c2)cc1C#Cc1nnc2ccccn12 [methanesulfonic acid salt] 8.51 to 9.31

* * *

# procedure-summary: Acute toxicity, oral route, mice
# condition-parameters: male, CD-1, mouse, in vivo, po, LD50, oral, male CD-1 mice; calculated as a free base
measure: LD50 at 28 days
Please answer in the form of a number followed by its unit of measurement.

What value of LD50 at 28 days has been recorded for this entry: CS(=O)(=O)O.Cc1ccc(C(=O)Nc2ccc(CN3CCN(C)CC3)c(C(F)(F)F)c2)cc1C#Cc1nnc2ccccn12 [methanesulfonic acid salt] 1190 mg/kg

* * *

# procedure-summary: in vivo
# condition-parameters: dog, in vivo; dogs; read-out: half-life period (converted)
measure: half-life

What value of half-life has been recorded for this entry: CS(=O)(=O)O.Cc1ccc(C(=O)Nc2ccc(CN3CCN(C)CC3)c(C(F)(F)F)c2)cc1C#Cc1nnc2ccccn12 [methanesulfonic acid salt] ~7 h

* * *

# procedure-summary: Solubility of the free base in various solvents
# Assay type: physicochemical
# condition-parameters: organic solvent or mixture, thermodynamic from solid; 2-methyltetrahydrofuran; 3.7 mg in 0.6 mL; 50 °C
measure: solubility

What value of solubility has been recorded for this entry: Cc1ccc(C(=O)Nc2ccc(CN3CCN(C)CC3)c(C(F)(F)F)c2)cc1C#Cc1nnc2ccccn12 [free base] > 800 µg/mL

* * *

# procedure-summary: Solubility of the free base in various solvents
# Assay type: physicochemical
# condition-parameters: organic solvent or mixture, thermodynamic from solid; Methyl tert-butyl ether; 4.7 mg in 4.0 mL; 50 °C
measure: solubility

What value of solubility has been recorded for this entry: Cc1ccc(C(=O)Nc2ccc(CN3CCN(C)CC3)c(C(F)(F)F)c2)cc1C#Cc1nnc2ccccn12 [free base] < 800 µg/mL

* * *

# procedure-summary: in vivo
# condition-parameters: oral, rats, 80 mg/kg
measure: maximum concentration

What value of maximum concentration has been recorded for this entry: CS(=O)(=O)O.Cc1ccc(C(=O)Nc2ccc(CN3CCN(C)CC3)c(C(F)(F)F)c2)cc1C#Cc1nnc2ccccn12 [methanesulfonic acid salt] 1250 ng/mL

* * *

# procedure-summary: in vivo
# condition-parameters: dog, in vivo; oral, dogs, 22 mg/kg
measure: AUC (ng·h/mL)
Give just the number in ng·h/mL; leave the unit off.

What value of AUC has been recorded for this entry: CS(=O)(=O)O.Cc1ccc(C(=O)Nc2ccc(CN3CCN(C)CC3)c(C(F)(F)F)c2)cc1C#Cc1nnc2ccccn12 [methanesulfonic acid salt] 5480

* * *

# system-tested: Bcr-Abl (Q252H) (Homo sapiens, UniProt P00519, Q252H, form not given)
# procedure-summary: Bcr-Abl tyrosine kinase enzyme activity
measure: IC50 (nM)
Give just the number in nM; leave the unit off.

What value of IC50 has been recorded for this entry: CS(=O)(=O)O.Cc1ccc(C(=O)Nc2ccc(CN3CCN(C)CC3)c(C(F)(F)F)c2)cc1C#Cc1nnc2ccccn12 [methanesulfonic acid salt] 12

* * *

# procedure-summary: in vivo
# condition-parameters: rat, in vivo; rats; read-out: apparent volume of distribution Vd
# Source text: Clearance following intravenous administration is quite high: 2.12 L/h/kg for dogs, 1.61 L/h/kg for rats. A large apparent volume of distribution (Vd=14.1 L/kg for dogs, 6.16 L/kg for rats) indicates extensive drug distribution in tissues.
measure: Vd (L/kg)
Give just the number in L/kg; leave the unit off.

What value of Vd has been recorded for this entry: CS(=O)(=O)O.Cc1ccc(C(=O)Nc2ccc(CN3CCN(C)CC3)c(C(F)(F)F)c2)cc1C#Cc1nnc2ccccn12 [methanesulfonic acid salt] 6.16

* * *

# procedure-summary: in vivo
# Set-up: species or system C57BL/6 line mice
# condition-parameters: mouse; free base 50 mg/kg, single oral, C57BL/6 mice, plasma
measure: half-life

What value of half-life has been recorded for this entry: Cc1ccc(C(=O)Nc2ccc(CN3CCN(C)CC3)c(C(F)(F)F)c2)cc1C#Cc1nnc2ccccn12 [free base] 144 min

* * *

# procedure-summary: in vivo
# Design: species or system C57BL/6 line mice
# condition-parameters: mouse, plasma; mesylate polymorphous modification I 59 mg/kg (50 mg/kg as free base), single oral, C57BL/6 mice; read-out: Cmax
measure: Cmax (ng/mL)
Give just the number in ng/mL; leave the unit off.

What value of Cmax has been recorded for this entry: CS(=O)(=O)O.Cc1ccc(C(=O)Nc2ccc(CN3CCN(C)CC3)c(C(F)(F)F)c2)cc1C#Cc1nnc2ccccn12 [methanesulfonic acid salt] 1100

* * *

# procedure-summary: Solubility of the free base in various solvents
# Assay type: physicochemical
# condition-parameters: organic solvent or mixture, thermodynamic from solid; Dichloromethane; 3.7 mg in 0.4 mL; 50 °C
measure: solubility

What value of solubility has been recorded for this entry: Cc1ccc(C(=O)Nc2ccc(CN3CCN(C)CC3)c(C(F)(F)F)c2)cc1C#Cc1nnc2ccccn12 [free base] > 800 µg/mL

* * *

# procedure-summary: in vivo
# condition-parameters: rat, in vivo; oral, rats, 80 mg/kg
measure: AUC (ng·h/mL)
Give just the number in ng·h/mL; leave the unit off.

What value of AUC has been recorded for this entry: CS(=O)(=O)O.Cc1ccc(C(=O)Nc2ccc(CN3CCN(C)CC3)c(C(F)(F)F)c2)cc1C#Cc1nnc2ccccn12 [methanesulfonic acid salt] 21100

* * *

# procedure-summary: in vivo
# Design: species or system C57BL/6 line mice
# condition-parameters: mouse; free base 50 mg/kg, single oral, C57BL/6 mice, plasma
# Procedure: FIGS. 52A-52B. […] The mean values were determined for each time point on the basis of the individual data obtained from three animals. The results of the study are given in FIG. 52 and in Tables 14 and 15.
measure: AUC(0-inf)
Please answer in the form of a number followed by its unit of measurement.

What value of AUC(0-inf) has been recorded for this entry: Cc1ccc(C(=O)Nc2ccc(CN3CCN(C)CC3)c(C(F)(F)F)c2)cc1C#Cc1nnc2ccccn12 [free base] 10900 ng·h/mL

* * *

# procedure-summary: Acute toxicity, oral route, mice
# condition-parameters: male, CD-1, mouse, in vivo, po, LD50, oral, male CD-1 mice; dose of the substance administered
measure: LD50 at 28 days (mg/kg)
Give just the number in mg/kg; leave the unit off.

What value of LD50 at 28 days has been recorded for this entry: CS(=O)(=O)O.Cc1ccc(C(=O)Nc2ccc(CN3CCN(C)CC3)c(C(F)(F)F)c2)cc1C#Cc1nnc2ccccn12 [methanesulfonic acid salt] 1400

What value of LD50 at 28 days has been recorded for this entry: Cc1ccc(C(=O)Nc2ccc(CN3CCN(C)CC3)c(C(F)(F)F)c2)cc1C#Cc1nnc2ccccn12 [free base] 677

* * *

# system-tested: Bcr-Abl (H396P) (Homo sapiens, UniProt P00519, H396P, form not given)
# Sequence (P00519 242-493 H396P limits assumed): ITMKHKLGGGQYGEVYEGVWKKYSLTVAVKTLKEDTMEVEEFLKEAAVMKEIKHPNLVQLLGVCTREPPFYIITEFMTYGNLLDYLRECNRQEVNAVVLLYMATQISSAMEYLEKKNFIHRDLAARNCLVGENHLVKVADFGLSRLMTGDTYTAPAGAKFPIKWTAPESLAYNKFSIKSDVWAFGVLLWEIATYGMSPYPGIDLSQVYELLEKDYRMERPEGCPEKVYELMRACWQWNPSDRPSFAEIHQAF
# procedure-summary: Bcr-Abl tyrosine kinase enzyme activity
measure: IC50

What value of IC50 has been recorded for this entry: CS(=O)(=O)O.Cc1ccc(C(=O)Nc2ccc(CN3CCN(C)CC3)c(C(F)(F)F)c2)cc1C#Cc1nnc2ccccn12 [methanesulfonic acid salt] 1 nM

* * *

# procedure-summary: in vivo
# condition-parameters: rat, in vivo; oral, rats, 5 to 80 mg/kg (4.2 to 68 mg/kg as free base); read-out: bioavailability F
# From the text: Clearance following intravenous administration is quite high: 2.12 L/h/kg for dogs, 1.61 L/h/kg for rats. A large apparent volume of distribution (Vd=14.1 L/kg for dogs, 6.16 L/kg for rats) indicates extensive drug distribution in tissues.
measure: bioavailability

What value of bioavailability has been recorded for this entry: CS(=O)(=O)O.Cc1ccc(C(=O)Nc2ccc(CN3CCN(C)CC3)c(C(F)(F)F)c2)cc1C#Cc1nnc2ccccn12 [methanesulfonic acid salt] 13.8 to 59.5%

* * *

# procedure-summary: in vivo
# Format: in vivo
# condition-parameters: mouse, in vivo; mice; read-out: half-life period (converted)
measure: half-life

What value of half-life has been recorded for this entry: CS(=O)(=O)O.Cc1ccc(C(=O)Nc2ccc(CN3CCN(C)CC3)c(C(F)(F)F)c2)cc1C#Cc1nnc2ccccn12 [methanesulfonic acid salt] ~3 h

* * *

# system-tested: Bcr-Abl (M351T) (Homo sapiens, UniProt P00519, M351T, form not given)
# procedure-summary: Bcr-Abl tyrosine kinase enzyme activity
measure: pIC50
Keep in mind that pIC50 stands for -log10 of concentration in molar terms.

What value of pIC50 has been recorded for this entry: CS(=O)(=O)O.Cc1ccc(C(=O)Nc2ccc(CN3CCN(C)CC3)c(C(F)(F)F)c2)cc1C#Cc1nnc2ccccn12 [methanesulfonic acid salt] 8.55

Values compiled from patent US11225474B2.
